Quick reference for AUC(0-inf) among some molecules
Experiment: AUC (0 to infinity) in Sprague-Dawley rat at 1 mg/kg, iv and 5 mg/kg, po
Type: ADME, organism-based
Details: plasma
Give just the numeric value; ng·h/mL need not be written.

INPUT: Given the entry CCC(C(=O)O)N1Cc2sc(-c3ccc(-c4cnn(Cc5ccccc5)c4)cc3)cc2S1(=O)=O (racemic) , report its measured AUC(0-inf).
OUTPUT: 4730

INPUT: Given the entry CCC(C(=O)O)N1Cc2sc(C#Cc3ccc(N(C)C)cc3)cc2S1(=O)=O (racemic) , report its measured AUC(0-inf).
OUTPUT: 106000

* * *

Target: 72 kDa type IV collagenase (Homo sapiens)
Assay: Inhibition of MMP2 (unknown origin)
property.measured: INH

Sample records with INH:
>>> print(df.to_string())
                                   compound  reading
0  CCC(C(=O)O)N1Cc2sc(-c3ccc(-c4ccc(N(C)Cc5ccccc5)nc4)cc3)cc2S1(=O)=O (racemic)  > 30 µM
1  CCC(C(=O)O)N1Cc2sc(-c3ccc(/C=C/c4ccccc4)cc3)cc2S1(=O)=O (racemic)   3.9 µM
2  CCC(C(=O)O)N1Cc2sc(-c3ccn(C#Cc4ccccc4)n3)cc2S1(=O)=O (racemic)  > 30 µM
3  CCC(C(=O)NO)N1Cc2sc(-c3ccccc3)cc2S1(=O)=O (racemic)  0.03 µM
4  CCC(C(=O)O)N1Cc2sc(-c3ccn(Cc4ccccc4)n3)cc2S1(=O)=O (racemic)  > 30 µM
5  CCC(C(=O)O)N1Cc2sc(C#Cc3ccccn3)cc2S1(=O)=O (racemic)  > 30 µM
6  CCC(C(=O)O)N1Cc2sc(-c3ccc(-c4ccsc4)cc3)cc2S1(=O)=O (racemic)  > 30 µM
7  CCC(C(=O)O)N1Cc2sc(-c3ccc(-c4ccc(N(C)C)nc4)cc3)cc2S1(=O)=O (racemic)  > 30 µM

INPUT: Given the entry CCC(C(=O)O)N1Cc2sc(C#CCC3CCCCC3)cc2S1(=O)=O (racemic) , report its measured INH.
OUTPUT: > 30 µM

INPUT: Given the entry CCC(C(=O)O)N1Cc2sc(C#Cc3cc(C(F)(F)F)cc(C(F)(F)F)c3)cc2S1(=O)=O (racemic) , report its measured INH.
OUTPUT: > 30 µM

INPUT: Given the entry CCC(C(=O)NO)N1Cc2sc(-c3ccc(-c4ccccc4)cc3)cc2S1(=O)=O (racemic) , report its measured INH.
OUTPUT: 0.3 µM

Data provenance is ChEMBL document CHEMBL2346580.
